# System: TNK1
# CONDITION_DESCRIPTION: concentration: 1 μM, replicates: in singlicate; n = 1
MEASUREMENT_LABEL: %Inh (%)
Numbers only; they are read as %.

Known results for compounds:
INSERT INTO measurements (compound, study_system, measurement_label, value) VALUES
  ('Cl.O=S(=O)(c1cccc(F)c1)c1ccc(Nc2ncnc3cc(Br)sc23)cc1Cl [GSK306886]', 'TNK1', '%Inh', 0),
  ('CC(=O)Nc1n[nH]c2ncc(-c3ccccc3)cc12 [SB-548492]', 'TNK1', '%Inh', 0),
  ('Clc1ccc(-c2cc(-c3c[nH]nc3-c3ccccn3)ccn2)cc1 [GW681251]', 'TNK1', '%Inh', 0),
  ('CNc1nccc(-c2c(-c3ccc(F)cc3)ncn2C2CCN(C)CC2)n1 [SB-222903]', 'TNK1', '%Inh', 25),
  ('CC(C)(C)OC(=O)NC1CCCN(c2cc(-c3ccc4c(N)n[nH]c4c3)nc(N)n2)C1 (stereo not drawn) [GSK2286096]', 'TNK1', '%Inh', 10),
  ('Cc1cccc(-c2nc(Nc3ccc4[nH]nnc4c3)c3ccccc3n2)n1 [GW867587]', 'TNK1', '%Inh', 24),
  ('COc1ccc(NC(=O)c2ccc(-c3cc(-c4nnc(C)o4)ccc3C)cc2)cc1 [GW595885]', 'TNK1', '%Inh', 0),
  ('Cl.Cl.c1ccc(-c2cc3ccncc3cc2OC2CCNCC2)cc1 [GSK1122999]', 'TNK1', '%Inh', 6);

# evaluate next
query: Any idea what %Inh came out for CSc1ccc(NC2=C(c3ccccc3Cl)C(=O)NC2=O)cc1 [SB-342411] on TNK1?
result: 0

* * *

# Test system: MYO3B
# CONDITION_DESCRIPTION: concentration: 1 μM, replicates: in singlicate; n = 1
%Inh values for the compounds below.
Write your answer as a measured quantity: the number, then the unit.

Past entries and their recorded results:
INSERT INTO measurements (compound, measurement_label, value) VALUES
  ('Oc1ccc2ncnc(Nc3ccc(OCc4ccccc4)cc3)c2c1 [GI262866]', '%Inh', '0%'),
  ('Fc1cccc(COc2ccc(Nc3ncnc4cc[nH]c34)cc2Cl)c1', '%Inh', '29%'),
  ('Cc1cc(N2CCC(NS(=O)(=O)c3ccc(F)cc3)CC2)nc(Nc2cccc(C#N)c2)n1.O=C(O)C(F)(F)F [GSK1653537]', '%Inh', '0%'),
  ('COc1cc2c(Nc3cccc(NC(=O)c4ccccc4)c3)ncnc2cc1OCCCN1CCOCC1 [GSK223810]', '%Inh', '0%');

query: # get_value(readout='%Inh', item= CN1c2ccc(-c3ccc(C(=O)NCCO)cc3)cc2-c2[nH]ncc2S1(=O)=O )
result: 0%

* * *

# Test system: PAK6;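 note: kd values determined as follow-up on hits from a single-replicate KINOMEscan panel screen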
MEASUREMENT_LABEL: Kd

query: Recall the recorded Kd for Cc1ccc(C)c(NC(=O)NCCNc2ccnc(Nc3ccc(F)cc3)n2)c1 with PAK6 and state it.
result: > 10 µM

* * *

# System: AKT2
# CONDITION_DESCRIPTION: concentration: 1 μM, replicates: in singlicate; n = 1
Record Met whenever %Inh is at 3% or higher; record Not met when lower.

// known answers, use as guide
INSERT INTO assay_data (compound, cat) VALUES
  ('COc1cc2c(Nc3cccc(NC(=O)c4ccccc4)c3)ncnc2cc1OCCCN1CCOCC1', 'Met'),
  ('Cc1ccc(NC(=O)c2cccc(C#N)c2)cc1-c1ccc(C(=O)Nc2ccncc2)cc1', 'Not met'),
  ('COc1ccc(Nc2nccc(N3CCC(NC(=O)c4cccc(NC(C)=O)c4)C3)n2)cc1 (centres unmarked)', 'Met'),
  ('OCCOCCn1ccc2ncnc(Nc3ccc(Oc4cccc(Cl)c4)c(Cl)c3)c21', 'Not met');

From here, focus on the item given below.
query: Entry Cn1ccc2ncnc(Oc3ccc(NC(=O)Nc4cccnc4)c(Cl)c3)c21 : is its %Inh no less than 3%?
result: Met
